Tested on: Rattus norvegicus
procedure.details: Antiinflammatory activity in albino rat assessed as inhibition of carrageenan-induced paw edema at 28 umol/kg, ip administered 1 hr post carrageenan challenge measured at 5 hrs post compound dosing relative to control
Type: functional
The threshold is inclusive: inhibition in vivo at 28 µmol/kg of exactly 50% counts as YES; values below receive NO.

compound	label
Cc1c(C(=O)NCc2nc3ccccc3[nH]2)nc2ccc(Cl)cc2c1O	YES
Cc1c(C(=O)NC2CCCCC2)nc2ccc(Cl)cc2c1O	YES
Cc1ccc(-c2cc(C(F)(F)F)nn2-c2ccc(S(N)(=O)=O)cc2)cc1	YES
Cc1c(C(=O)NC(CO)Cc2ccccc2)nc2ccc(Cl)cc2c1O (stereo not given)	NO
Cc1c(C(=O)N2CCCCC2)nc2ccc(Cl)cc2c1O	NO
Cc1c(C(=O)N2CCN(c3ccccc3)CC2)nc2ccc(Cl)cc2c1O	YES
Cc1c(C(=O)N2CCNCC2)nc2ccc(Cl)cc2c1O	NO
Cc1c(C(=O)N(C)c2ccccc2)nc2ccc(Cl)cc2c1O	NO
Cc1c(C(=O)NCCc2ccc(N3CCCCC3)cc2)nc2ccc(Cl)cc2c1O	NO
Cc1c(C(=O)NCCc2ccccc2)nc2ccc(Cl)cc2c1O	NO
Cc1c(C(=O)NC2CCCN(Cc3ccccc3)C2)nc2ccc(Cl)cc2c1O (stereo not given)	NO

----------
measured.on: Prostaglandin G/H synthase 2 (Homo sapiens)
procedure.details: Inhibition of recombinant human COX2 using arachidonic acid as substrate assessed as decrease in PGF2 production preincubated for 15 mins followed by substrate addition measured after 2 mins by enzyme immunoassay

compound	IC50 / µM
Cc1c(C(=O)NCCc2ccc(N3CCCCC3)cc2)nc2ccc(Cl)cc2c1O	2.11
Cc1c(C(=O)N2CCCCC2)nc2ccc(Cl)cc2c1O	3.14
Cc1c(C(=O)N2CCN(c3ccccc3)CC2)nc2ccc(Cl)cc2c1O	1.13
Cc1c(C(=O)NC(CO)Cc2ccccc2)nc2ccc(Cl)cc2c1O (stereo not drawn)	2.78
Cc1c(C(=O)N(C)c2ccccc2)nc2ccc(Cl)cc2c1O	1.74
Cc1c(C(=O)NCc2nc3ccccc3[nH]2)nc2ccc(Cl)cc2c1O	1.21
CCOC(=O)C(Cc1ccccc1)NC(=O)c1nc2ccc(Cl)cc2c(O)c1C (stereo not drawn)	1.91
Cc1c(C(=O)N2CCNCC2)nc2ccc(Cl)cc2c1O	2.81

----------
System: Rattus norvegicus
procedure.details: Antiinflammatory activity in albino rat assessed as inhibition of carrageenan-induced paw edema at 28 umol/kg, ip administered 1 hr post carrageenan challenge measured at 3 hrs post compound dosing relative to control
Type: functional
Would you mind sorting the entries by inhibition in vivo at 28 µmol/kg according to these classes? low group (below 40%), middle group (40% to below 50%), high group (50% or more)

compound	label
Cc1c(C(=O)N2CCCCC2)nc2ccc(Cl)cc2c1O	low group
Cc1c(C(=O)N2CCNCC2)nc2ccc(Cl)cc2c1O	low group
Cc1c(C(=O)NCCc2ccc(N3CCCCC3)cc2)nc2ccc(Cl)cc2c1O	middle group
Cc1c(C(=O)NCCc2ccc(N3CCCC3C)cc2)nc2ccc(Cl)cc2c1O (stereo not given)	middle group
Cc1c(C(=O)NCCc2ccc(N(C)C)cc2)nc2ccc(Cl)cc2c1O	middle group
Cc1ccc(-c2cc(C(F)(F)F)nn2-c2ccc(S(N)(=O)=O)cc2)cc1 [CELECOXIB]	high group
Cc1c(C(=O)NCCc2ccc(N3CCCC3)cc2)nc2ccc(Cl)cc2c1O	middle group
Cc1c(C(=O)NC2CCCN(Cc3ccccc3)C2)nc2ccc(Cl)cc2c1O (stereo not given)	low group
CCOC(=O)C(Cc1ccccc1)NC(=O)c1nc2ccc(Cl)cc2c(O)c1C (stereo not given)	middle group
Cc1c(C(=O)N(C)c2ccccc2)nc2ccc(Cl)cc2c1O	middle group
Cc1c(C(=O)N2CCN(c3ccccc3)CC2)nc2ccc(Cl)cc2c1O	high group

----------
procedure.details: Inhibition of soybean 15-LOX assessed as decrease in leukotriene formation by enzyme immunoassay
Set-up: species or system Glycine max
readout.kind: IC50 (µM)

given.smiles	test.result
Cc1c(C(=O)N2CCNCC2)nc2ccc(Cl)cc2c1O	8.43
Cc1c(C(=O)N2CCCCC2)nc2ccc(Cl)cc2c1O	10.4
Cc1c(C(=O)NCCc2ccc(N3CCCC3)cc2)nc2ccc(Cl)cc2c1O	6.74
Cc1c(C(=O)NCCc2ccc(N3CCCCC3)cc2)nc2ccc(Cl)cc2c1O	7.32
Cc1c(C(=O)NCc2nc3ccccc3[nH]2)nc2ccc(Cl)cc2c1O	6.18
Cc1c(C(=O)NC2CCCCC2)nc2ccc(Cl)cc2c1O	6.54

----------
Reported values of IC50 for individual entries
measured.on: Prostaglandin G/H synthase 2 (Homo sapiens, UniProt P35354)
Sequence (P35354 whole entry): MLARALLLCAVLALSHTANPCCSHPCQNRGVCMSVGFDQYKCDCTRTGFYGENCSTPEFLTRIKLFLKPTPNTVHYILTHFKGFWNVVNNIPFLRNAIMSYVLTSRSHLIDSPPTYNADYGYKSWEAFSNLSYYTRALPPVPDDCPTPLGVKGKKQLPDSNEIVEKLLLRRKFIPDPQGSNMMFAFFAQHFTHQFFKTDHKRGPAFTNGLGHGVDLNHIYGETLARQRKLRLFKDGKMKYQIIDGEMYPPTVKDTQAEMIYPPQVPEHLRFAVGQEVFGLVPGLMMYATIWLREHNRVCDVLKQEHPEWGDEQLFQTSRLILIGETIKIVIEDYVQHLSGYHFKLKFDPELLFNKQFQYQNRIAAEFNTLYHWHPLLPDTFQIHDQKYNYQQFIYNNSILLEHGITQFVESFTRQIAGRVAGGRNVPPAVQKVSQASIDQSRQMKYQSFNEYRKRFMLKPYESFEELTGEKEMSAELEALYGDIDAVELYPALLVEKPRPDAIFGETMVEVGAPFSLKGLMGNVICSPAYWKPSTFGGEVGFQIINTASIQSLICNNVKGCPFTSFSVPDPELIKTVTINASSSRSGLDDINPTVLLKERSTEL
procedure.details: Inhibition of recombinant human COX2 using arachidonic acid as substrate assessed as decrease in PGF2 production preincubated for 15 mins followed by substrate addition measured after 2 mins by enzyme immunoassay
readout.kind: IC50 (µM)

molecule	unit.name	test.result
Cc1c(C(=O)NC2CCCN(Cc3ccccc3)C2)nc2ccc(Cl)cc2c1O (stereo unspecified)	µM	3.54
Cc1c(C(=O)NCCc2ccccc2)nc2ccc(Cl)cc2c1O	µM	2.54
Cc1c(C(=O)NCCc2ccc(N3CCCC3)cc2)nc2ccc(Cl)cc2c1O	µM	1.69
Cc1c(C(=O)NCCc2ccc(N(C)C)cc2)nc2ccc(Cl)cc2c1O	µM	1.67
Cc1c(C(=O)NC2CCCCC2)nc2ccc(Cl)cc2c1O	µM	1.41
Cc1c(C(=O)NCCc2ccc(N3CCCC3C)cc2)nc2ccc(Cl)cc2c1O (stereo unspecified)	µM	1.91

----------
Reported values of pIC50 for individual entries
measured.on: Prostaglandin G/H synthase 1 (Ovis aries, UniProt P05979)
Sequence (P05979 whole entry): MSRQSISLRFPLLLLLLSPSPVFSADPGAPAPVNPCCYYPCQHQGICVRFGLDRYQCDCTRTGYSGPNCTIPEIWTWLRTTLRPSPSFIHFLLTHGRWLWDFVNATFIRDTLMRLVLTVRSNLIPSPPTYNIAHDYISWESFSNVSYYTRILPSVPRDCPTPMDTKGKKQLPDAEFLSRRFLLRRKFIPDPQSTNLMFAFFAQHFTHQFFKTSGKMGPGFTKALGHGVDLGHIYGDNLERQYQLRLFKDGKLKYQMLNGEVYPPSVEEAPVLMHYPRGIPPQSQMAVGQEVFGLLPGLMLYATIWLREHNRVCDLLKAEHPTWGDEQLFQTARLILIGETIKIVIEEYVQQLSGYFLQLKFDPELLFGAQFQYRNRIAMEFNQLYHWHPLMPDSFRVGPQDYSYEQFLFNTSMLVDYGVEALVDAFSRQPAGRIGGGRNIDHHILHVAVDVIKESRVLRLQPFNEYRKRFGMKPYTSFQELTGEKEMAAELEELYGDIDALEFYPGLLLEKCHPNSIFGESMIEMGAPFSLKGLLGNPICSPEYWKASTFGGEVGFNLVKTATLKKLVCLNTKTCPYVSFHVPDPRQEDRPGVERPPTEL
procedure.details: Inhibition of ovine COX1 using arachidonic acid as substrate assessed as decrease in PGF2 production preincubated for 15 mins followed by substrate addition measured after 2 mins by enzyme immunoassay
pIC50: −log10 of the molar value.
readout.kind: pIC50

molecule	measured.on	test.result
Cc1c(C(=O)N2CCNCC2)nc2ccc(Cl)cc2c1O	Prostaglandin G/H synthase 1 (Ovis aries, UniProt P05979)	4.97
Cc1c(C(=O)N(C)c2ccccc2)nc2ccc(Cl)cc2c1O	Prostaglandin G/H synthase 1 (Ovis aries, UniProt P05979)	5.08
Cc1c(C(=O)NCc2nc3ccccc3[nH]2)nc2ccc(Cl)cc2c1O	Prostaglandin G/H synthase 1 (Ovis aries, UniProt P05979)	5.10
Cc1c(C(=O)NC2CCCCC2)nc2ccc(Cl)cc2c1O	Prostaglandin G/H synthase 1 (Ovis aries, UniProt P05979)	5.11
Cc1c(C(=O)N2CCN(c3ccccc3)CC2)nc2ccc(Cl)cc2c1O	Prostaglandin G/H synthase 1 (Ovis aries, UniProt P05979)	5.07
CCOC(=O)C(Cc1ccccc1)NC(=O)c1nc2ccc(Cl)cc2c(O)c1C (centres undefined)	Prostaglandin G/H synthase 1 (Ovis aries, UniProt P05979)	5.02
Cc1c(C(=O)NCCc2ccc(N3CCCC3C)cc2)nc2ccc(Cl)cc2c1O (centres undefined)	Prostaglandin G/H synthase 1 (Ovis aries, UniProt P05979)	5.01
Cc1c(C(=O)NC2CCCN(Cc3ccccc3)C2)nc2ccc(Cl)cc2c1O (centres undefined)	Prostaglandin G/H synthase 1 (Ovis aries, UniProt P05979)	4.88
Cc1c(C(=O)NC(CO)Cc2ccccc2)nc2ccc(Cl)cc2c1O (centres undefined)	Prostaglandin G/H synthase 1 (Ovis aries, UniProt P05979)	4.94
Cc1c(C(=O)NCCc2ccc(N3CCCC3)cc2)nc2ccc(Cl)cc2c1O	Prostaglandin G/H synthase 1 (Ovis aries, UniProt P05979)	5.12
Cc1c(C(=O)N2CCCCC2)nc2ccc(Cl)cc2c1O	Prostaglandin G/H synthase 1 (Ovis aries, UniProt P05979)	4.91
Cc1c(C(=O)NCCc2ccc(N(C)C)cc2)nc2ccc(Cl)cc2c1O	Prostaglandin G/H synthase 1 (Ovis aries, UniProt P05979)	5.08
Cc1c(C(=O)NCCc2ccc(N3CCCCC3)cc2)nc2ccc(Cl)cc2c1O	Prostaglandin G/H synthase 1 (Ovis aries, UniProt P05979)	4.98
Cc1c(C(=O)NCCc2ccccc2)nc2ccc(Cl)cc2c1O	Prostaglandin G/H synthase 1 (Ovis aries, UniProt P05979)	4.94

----------
procedure.details: Inhibition of soybean 15-LOX assessed as decrease in leukotriene formation by enzyme immunoassay
Parameters: species or system Glycine max
Reported values of IC50 for individual entries

compound	IC50
Cc1c(C(=O)NCCc2ccccc2)nc2ccc(Cl)cc2c1O	9.87 µM
Cc1ccc(Cl)c(Nc2ccccc2C(=O)O)c1Cl [MECLOFENAMATE SODIUM]	5.64 µM
CCOC(=O)C(Cc1ccccc1)NC(=O)c1nc2ccc(Cl)cc2c(O)c1C (centres undefined)	7.14 µM
Cc1c(C(=O)N2CCN(c3ccccc3)CC2)nc2ccc(Cl)cc2c1O	5.91 µM

----------
Reported values of inhibition in vivo at 28 µmol/kg for individual entries
Test system: Rattus norvegicus
procedure.details: Antiinflammatory activity in albino rat assessed as inhibition of carrageenan-induced paw edema at 28 umol/kg, ip administered 1 hr post carrageenan challenge measured at 1 hr post compound dosing relative to control
Type: functional

compound	inhibition in vivo at 28 µmol/kg [%]
Cc1c(C(=O)N2CCCCC2)nc2ccc(Cl)cc2c1O	30.1
Cc1c(C(=O)NCc2nc3ccccc3[nH]2)nc2ccc(Cl)cc2c1O	45.2
Cc1c(C(=O)NC2CCCCC2)nc2ccc(Cl)cc2c1O	43.5
Cc1c(C(=O)NCCc2ccc(N3CCCC3C)cc2)nc2ccc(Cl)cc2c1O (stereo not given)	41
Cc1c(C(=O)NCCc2ccc(N3CCCC3)cc2)nc2ccc(Cl)cc2c1O	41
Cc1c(C(=O)N2CCNCC2)nc2ccc(Cl)cc2c1O	31.1
Cc1c(C(=O)NCCc2ccccc2)nc2ccc(Cl)cc2c1O	35.8
Cc1c(C(=O)NC(CO)Cc2ccccc2)nc2ccc(Cl)cc2c1O (stereo not given)	34.2
Cc1c(C(=O)N(C)c2ccccc2)nc2ccc(Cl)cc2c1O	38.9
CCOC(=O)C(Cc1ccccc1)NC(=O)c1nc2ccc(Cl)cc2c(O)c1C (stereo not given)	40.5
Cc1c(C(=O)NCCc2ccc(N(C)C)cc2)nc2ccc(Cl)cc2c1O	39.1
Cc1ccc(-c2cc(C(F)(F)F)nn2-c2ccc(S(N)(=O)=O)cc2)cc1 [CELECOXIB]	57.1
Cc1c(C(=O)N2CCN(c3ccccc3)CC2)nc2ccc(Cl)cc2c1O	49.5
Cc1c(C(=O)NC2CCCN(Cc3ccccc3)C2)nc2ccc(Cl)cc2c1O (stereo not given)	31.4
Cc1c(C(=O)NCCc2ccc(N3CCCCC3)cc2)nc2ccc(Cl)cc2c1O	39.8
